target: KSP motor domain (Homo sapiens, UniProt P52732); assay: biochemical; details: KSP inhibitory activity, end-point assay; class symbols (Table 1); read-out: IC50
Sequence (P52732 18-359 limits assumed): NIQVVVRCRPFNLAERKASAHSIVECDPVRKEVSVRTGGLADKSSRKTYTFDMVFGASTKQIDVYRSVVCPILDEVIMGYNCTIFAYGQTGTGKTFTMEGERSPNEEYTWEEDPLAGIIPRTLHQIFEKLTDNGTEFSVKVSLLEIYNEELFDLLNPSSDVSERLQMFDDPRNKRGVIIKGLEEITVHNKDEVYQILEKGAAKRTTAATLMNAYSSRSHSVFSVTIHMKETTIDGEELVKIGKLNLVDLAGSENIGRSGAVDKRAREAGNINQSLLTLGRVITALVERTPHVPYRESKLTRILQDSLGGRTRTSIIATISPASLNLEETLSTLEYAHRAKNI
pIC50: −log10 of the molar value.
READOUT LABEL: pIC50

Ask: Would you mind telling me what pIC50 value was observed for CC[C@@H](CO)NC(=O)c1cc2cc3c(nc2s1)CCC(C(C)(C)C)C3 (some centres unmarked) ?
Reply: < 5.00

Ask: Given the entry CC(C)(C)C1CCc2nc3sc(CN)cc3cc2C1 (centres unmarked) , report its measured pIC50.
Reply: 5.00 to 6.00

Ask: // returns reported pIC50 for input Cn1cc(C(=O)Nc2cccc([C@@H](CN)NC(=O)c3cc4cc5c(nc4s3)CC[C@@H](C(C)(C)C)C5)c2)cn1
Reply: > 7.00

Ask: pIC50 for CC(C)C1CCc2cc3c(N)c(C#N)sc3nc2C1 (centres unmarked) ?
Reply: < 5.00

Ask: Would you kindly share the measured pIC50 for CC(C)(C)C1CCc2nc3c(cc2C1)C(N)=C(C#N)S3(=O)=O (centres unmarked) ?
Reply: 5.00 to 6.00

Ask: Fill blank: measured pIC50 of the molecule CC1(C)CCc2nc3sc(C#N)c(N)c3cc2C1 is ____.
Reply: < 5.00

Ask: // lookup pIC50 for CC(C)(C)C1CCc2nc3sc(C(=O)N[C@@H]4CCC[C@H]4O)cc3cc2C1 (some centres unmarked)
Reply: 5.00 to 6.00

Ask: Any idea what pIC50 was measured for CC(C)(C)C1CCc2nc3sc(C(=O)N[C@H](CN)c4ccc(N)cc4)cc3cc2C1 (some centres unmarked) ?
Reply: > 7.00

Ask: I would be grateful if you could share the reported pIC50 for CC(C)(C)C1CCc2nc3sc(C(=O)N[C@H](CN)Cc4ccc(O)cc4)cc3cc2C1 (some centres unmarked) .
Reply: 6.00 to 7.00

Ask: For Cn1cnc(C(=O)Nc2cccc([C@@H](CN)NC(=O)c3cc4cc5c(nc4s3)CC[C@@H](C(C)(C)C)C5)c2)c1 , what is its reported pIC50?
Reply: > 7.00

Ask: Suppose we examine the molecule CC(CO)NC(=O)c1cc2cc3c(nc2s1)CCC(C(C)(C)C)C3 (centres unmarked) [Example 82] ; what pIC50 value has been reported?
Reply: 5.00 to 6.00

Ask: Recorded pIC50 for CCC(C)(C)C1CCc2nc3sc(C#N)cc3cc2C1 (centres unmarked) , please?
Reply: > 7.00

Ask: Using the record for CC(C)(C)C1CCc2nc3sc(C(=O)NCCN4CCCC4)cc3cc2C1 (centres unmarked) , report its pIC50.
Reply: 5.00 to 6.00

Ask: Consider the molecule shown here: CCCCC1CCc2nc3sc(C#N)c(N)c3cc2C1 (centres unmarked) What is its recorded pIC50?
Reply: < 5.00

Ask: Given CC(C)(C)C1CCc2nc3sc(C(=O)NC(CNCCO)c4cccc(NC(=O)c5ccco5)c4)cc3cc2C1 (centres unmarked) , state its recorded pIC50.
Reply: > 7.00

Ask: Which pIC50 reading was recorded for the molecule CC(C)(C)C1CCc2nc3sc(CNC(N)=O)cc3cc2C1 (centres unmarked) ?
Reply: 6.00 to 7.00

Ask: Name the recorded pIC50 for CC1CCc2nc3sc(C#N)c(N)c3cc2C1 (centres unmarked) .
Reply: < 5.00
